The values you see were collected from the supplement of paper PMC8671470.

System: NOMO-1
Assay: cell viability (% survival relative to DMSO control, bortezomib = 0%); higher = less cytotoxic
Conditions: 10 nM; 72 h
Please provide measured cell viability for the entries that follow.
# value in %; strip the unit string

Param readout = cell viability; param system = NOMO-1; param query = CCCCC/C=C\C/C=C\C/C=C\C/C=C\CCCC(=O)C(F)(F)F [Arachidonyl trifluoromethyl ketone] ; response: value 98.7

Form: Entry = O=[As]O[As]=O (stereo unspecified) [Arsenic trioxide] | System = NOMO-1 | cell viability = ____ 96

API: value(readout= cell viability, system= NOMO-1, query= CC(=O)N1CCN(c2ccc(OC[C@@H]3CO[C@@](Cn4ccnc4)(c4ccc(Cl)cc4Cl)O3)cc2)CC1 (racemic) [Ketoconazole] ) 95.5

Query cell viability on NOMO-1 for CNC(=C[N+](=O)[O-])NCCSCc1ccc(CN(C)C)o1 [Ranitidine] 96.2

Field: cell viability (NOMO-1). Entry: C=C1NC(=O)c2cc(CN(C)c3ccc(C(=O)N[C@@H](CCC(=O)O)C(=O)O)s3)ccc2N1 [Raltitrexed] 113

// fetch NOMO-1 cell viability for N#Cc1ccc(C2CCCc3cncn32)cc1 (stereo unspecified) [Fadrozole] 90.2

---

Tested on: HL-60
Test: cell viability (% survival relative to DMSO control); higher = less cytotoxic
Details: 0.01 µM; 72 h; co-treatment: DMSO vehicle
I'd appreciate it if you could supply cell viability values for the items below.
I only need the number, in %, no unit after it.

Consider the compound OCC(CO)N[C@H]1C[C@](O)(CO)[C@@H](O)[C@H](O)[C@H]1O [Voglibose] and give its measured cell viability. 99.9

For the compound Clc1cc(Cl)c(OCC#CI)cc1Cl [Haloprogin] , what cell viability is on record? 103

So what does the record say about cell viability for CC1Cc2ccccc2N1NC(=O)c1ccc(Cl)c(S(N)(=O)=O)c1 (stereo not given) [Indapamide] ? 104

What value of cell viability has been recorded for this entry: CN(C)C(=N)NC(=N)N [Metformin] 95.8

Can you share its cell viability? I mean this compound: CCCCC/C=C\C/C=C\C/C=C\C/C=C\CCCC(=O)C(F)(F)F [Arachidonyl trifluoromethyl ketone] 102

---

System: HEL
Test: cell viability (% survival relative to DMSO control, bortezomib = 0%); higher = less cytotoxic
Conditions: 100 nM; 72 h
Task for the reader: assign each of the following compounds its reported cell viability.
Please reply with the bare figure in % and do not write the unit itself.

Bench note: what cell viability did Clc1cc(Cl)c(OCC#CI)cc1Cl show? 106

Find the recorded cell viability belonging to CCCCCCCCCCCCC/C=C/[C@@H](O)[C@H](CO)N(C)C and report it. 103

Given the compound OCCN1C[C@H](O)[C@@H](O)[C@H](O)[C@H]1CO , what is its reported cell viability? 86.5

Requested read-out: cell viability. Entry: O=c1oc2c(cc1O)oc(=O)c1cc(O)c(O)c(O)c12 122

Item Fc1ccc(CNc2ncnc3ccc(F)cc23)cc1 has what recorded cell viability? 94.1

---

Test system: THP-1
Conditions: 72 h
Field: IC50 (cell viability). Provide a value for each of the compounds that follow.

Would you kindly share the measured IC50 (cell viability) for Cn1cc(C[C@@H](N)C(=O)O)c2ccccc21 ? > 10 µM

Can you share its IC50 (cell viability)? I mean this compound: OCC(CO)N[C@H]1C[C@](O)(CO)[C@@H](O)[C@H](O)[C@H]1O > 10 µM

For the compound N[C@@H](CCC(=O)N[C@@H](CS)C(=O)NCC(=O)O)C(=O)O , what IC50 (cell viability) is on record? > 10 µM

Bench note: what IC50 (cell viability) did Nc1nc(O)c2c(CCc3ccc(C(=O)N[C@@H](CCC(=O)O)C(=O)O)cc3)c[nH]c2n1 show? 7.02 µM

# lookup: IC50 (cell viability) of CC1Cc2ccccc2N1NC(=O)c1ccc(Cl)c(S(N)(=O)=O)c1 (stereo not given) [Indapamide] > 10 µM

---

Provide the recorded cell viability for the entries that follow.
System: myeloid leukemia patient primary cells Pat.7
Test: cell viability (% survival relative to DMSO control); higher = less cytotoxic
Settings: 1 nM; 72 h

Recorded cell viability for O=C(c1c2ccccc2cc2ccccc12)N1CCC(N2CCC[C@@H](C(=O)N3CCOCC3)C2)CC1 , please? 94.1%

I would be grateful if you could share the reported cell viability for CCC(CC#N)OC(=O)N[C@@H](C)c1cccc(NC(=O)Nc2ccc(-c3cnco3)c(OC)c2)c1 (stereo in doubt) . 98.1%

I am curious: what cell viability value has been reported for O=C(CCl)N(CCCNC(=O)C(F)(F)F)c1ccc([N+](=O)[O-])cc1 ? > 100%

Which cell viability is reported for this compound? O=C(Cc1cccc(OC(F)(F)F)c1)Nc1ccc(CCCCc2nnc(NC(=O)Cc3ccccn3)s2)nn1 58.6%

Any idea what its cell viability is? The compound is CCCCCCCCCCCCC/C=C/[C@@H](O)[C@H](CO)N(C)C 90.6%

I am curious: what cell viability value has been reported for Nc1ccn([C@@H]2O[C@H](CO)[C@@H](O)C2(F)F)c(=O)n1 ? 52.6%

Can you share its cell viability? I mean this compound: Nc1nc(O)c2c(CCc3ccc(C(=O)N[C@@H](CCC(=O)O)C(=O)O)cc3)c[nH]c2n1 98.8%

Value lookup for cell viability; key = Cc1nnc(-c2ccc(N3CCC(Oc4ccccc4C(F)(F)F)CC3)nn2)s1 > 100%

---

Tested on: Mono-Mac-6
Test: cell viability (% survival relative to DMSO control, bortezomib = 0%); higher = less cytotoxic
Conditions: 10000 nM; 72 h
property_name: cell viability (%)
Provide the reading as a plain figure in %.

What value of cell viability has been reported for the following compound? CCC(CC#N)OC(=O)N[C@@H](C)c1cccc(NC(=O)Nc2ccc(-c3cnco3)c(OC)c2)c1 (stereo in doubt) 8.67

Name the reported cell viability value associated with the compound N#Cc1ccc(C2CCCc3cncn32)cc1 (stereo not given) 112

# get_value(readout='cell viability', item= CN(C)C(=O)n1nnnc1Cc1ccc(-c2ccccc2)cc1 ) 0.0787

Request the reported cell viability associated with CCCCCCCCCCCCC/C=C/[C@@H](O)[C@H](CO)N(C)C 70

I have this compound here, Cn1c2cc(S(C)=O)sc2c2cnn(Cc3cccc(N)c3)c(=O)c21 (stereo not given) , and I need its recorded cell viability. 83

Query (compound): NCc1ccc(S(N)(=O)=O)cc1 [4-Homosulfanilamide] ; field requested: cell viability 92.3

Endpoint output: cell viability of NS(=O)(=O)c1ccc(S(=O)(=O)Nc2cccc3c(Cl)c[nH]c23)cc1 . Value? 11.1

cell viability for CC(C)(O)CNc1nc(Nc2ccnc(C(F)(F)F)c2)nc(-c2cccc(C(F)(F)F)n2)n1 ? 126

Any idea what cell viability was measured for C=C1C(=O)O[C@H](CCCCCCCC)[C@H]1C(=O)O ? 98.9

# lookup: cell viability of CCCCC/C=C\C/C=C\C/C=C\C/C=C\CCCC(=O)C(F)(F)F 57.7

---

Test system: myeloid leukemia patient primary cells Pat.11
Test: area under dose-response curve (viability, 1 nM-10 uM) (fraction (0-1)); higher = more sensitive
Conditions: 72 h
Exercise: state measured area under dose-response curve for each of the compounds provided.
Respond with the number and no other words.

Fill blank: measured area under dose-response curve of the compound O=C(CCl)N(CCCNC(=O)C(F)(F)F)c1ccc([N+](=O)[O-])cc1 [ML-175] is ____. 0.199

Can you share its area under dose-response curve? I mean this compound: CCCCCCCCCCCCC/C=C/[C@@H](O)[C@H](CO)N(C)C [N,N-Dimethylsphingosine] 0.0868

Query: area under dose-response curve; subject: CN(C)CCNC(=O)c1cccn2c(=O)c3cc4ccccc4cc3nc12 [Bmh-21] 0.31

Query (compound): c1ccc2c(c1)SCc1c-2[nH]c2ccccc12 ; field requested: area under dose-response curve 0.148

---

Tested on: MV4-11
Experiment: cell viability (% survival relative to DMSO control, bortezomib = 0%); higher = less cytotoxic
Conditions: 1 nM; 72 h
property_name: cell viability (%)
Respond with the bare value in %.

# lookup: cell viability of CCCCCCCCCCCCCCOc1ccc(C(=O)O)o1 87.6

Which cell viability value is on record for NCc1ccc(-c2cccnc2)s1 ? 91.6

What value of cell viability has been recorded for this entry: Oc1ncc(F)c(O)n1 96

So what's the measured cell viability for this one? COc1cc(C2Oc3cc(C4Oc5cc(O)cc(O)c5C(=O)C4O)ccc3OC2CO)ccc1O (configuration not stated) 100

GET /values?readout=cell viability&item= CC(C)(CS(=O)(=O)[O-])NC(=O)CC[N+](C)(C)CCO 104

Which cell viability is listed for CCCCCCCCCCCCC/C=C/[C@@H](O)[C@H](CO)N(C)C ? 94.2

GET /values?readout=cell viability&item= NS(=O)(=O)c1ccc(S(=O)(=O)Nc2cccc3c(Cl)c[nH]c23)cc1 99.4

Looking for the measured cell viability of N=C(N)c1ccc(N=NNc2ccc(C(=N)N)cc2)cc1 , can you help? 113

Would you mind telling me what cell viability value was observed for O=C(/C=C/c1cccnc1)NCCCCC1CCN(C(=O)c2ccccc2)CC1 ? 25.5

Field request: cell viability | item: N#Cc1ccc(C2CCCc3cncn32)cc1 (configuration not stated) 109

Look at this molecule and give its reported cell viability. N[C@@H](CCC(=O)N[C@@H](CS)C(=O)NCC(=O)O)C(=O)O 106

What value of cell viability has been recorded for this entry: CN(C)C(=O)n1nnnc1Cc1ccc(-c2ccccc2)cc1 98.3

Record request: cell viability value, item O=C1N[C@@H]2[C@@H](O)[C@@H](O)[C@H](O)[C@@H](CO)N2C1=O 96.4

I am curious: what cell viability value has been reported for c1ccc2nc(-c3nnc4sc(-c5cnccn5)nn34)ccc2c1 ? 96.4

Given the molecule CC(C)c1ccc2c(c1)c(SC(C)(C)C)c(CC(C)(C)C(=O)O)n2Cc1ccc(Cl)cc1 , what is its reported cell viability? 107

Look up cell viability for this molecule: Cn1c2cc(S(C)=O)sc2c2cnn(Cc3cccc(N)c3)c(=O)c21 (configuration not stated) 105

I'd like to know its cell viability. The molecule in question is CC(=O)N[C@@H](CS)C(=O)O 112
